B1: CD2-associated protein, residues 271 to 331; numbered along this chain, Q9Y5K6 (parent)
chain: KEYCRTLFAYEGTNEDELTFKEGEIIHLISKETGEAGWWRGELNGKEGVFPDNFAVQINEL

# Variants of: B1
# run.description: abundance fitness (aPCA) (normalised: wild type 0, dead -1); higher = more abundant; growth selection in yeast, the domain comes from the species named
# assay.context: Homo sapiens
param class (str): category from abundance fitness; see ranges 1: < -0.4; 2: ≥ -0.4 and < -0.1; 3: ≥ -0.1

{"columns": ["variant.identifier", "qualitative.label"],
 "data": [
  ["E22Y", 1],
  ["Y10Q", 1],
  ["F8G", 3],
  ["W38F", 2],
  ["G23H", 1],
  ["E15S", 2],
  ["G12F", 1],
  ["A9S", 3],
  ["D52F", 2],
  ["W38S", 1],
  ["F8A", 3],
  ["D16C", 2],
  ["P51F", 1],
  ["F54K", 3],
  ["A9Q", 3],
  ["N53Y", 3],
  ["T19H", 2],
  ["W38N", 1],
  ["N59M", 1],
  ["R5A", 1],
  ["E17K", 1],
  ["K1N", 2]
]}

Data provenance is the Human Domainome abundance scans (Beltran et al. 2025).
